Listing of recorded IC50 by entry.
Assay: Antiproliferative activity against human Bel7402 cells after 72 hrs MTT assay
Type: functional, cell-based
Conditions: Bel-7402, 72 h
METRIC: IC50 (µM)

{"STRUCTURE_NOTATION": "C=C(C)[C@@H]1CC[C@]2(C(=O)O)CC[C@]3(C)[C@H](CC[C@@H]4[C@@]5(C)CC/C(=N\\NS(=O)(=O)c6ccc(C)cc6)[C@@](C)(CO)[C@@H]5CC[C@]43C)[C@@H]12", "METRIC": "IC50", "QUANTITATIVE_RESULT": 39.4}
{"STRUCTURE_NOTATION": "C=C(C)[C@@H]1CC[C@]2(C(=O)OCc3ccccc3)CC[C@]3(C)[C@H](CC[C@@H]4[C@@]5(C)CC/C(=N\\NS(=O)(=O)c6ccc(C)cc6)[C@@](C)(CO)[C@@H]5CC[C@]43C)[C@@H]12", "METRIC": "IC50", "QUANTITATIVE_RESULT": 26.4}
{"STRUCTURE_NOTATION": "C=C(C)[C@@H]1CC[C@]2(C(=O)OCCO)CC[C@]3(C)[C@H](CC[C@@H]4[C@@]5(C)CCC(=O)[C@@](C)(COC(C)=O)[C@@H]5CC[C@]43C)[C@@H]12", "METRIC": "IC50", "QUANTITATIVE_RESULT": 27.4}
{"STRUCTURE_NOTATION": "C=C(C)[C@@H]1CC[C@]2(C(=O)NCC(=O)OC)CC[C@]3(C)[C@H](CC[C@@H]4[C@@]5(C)CCC(=O)[C@@](C)(COC(C)=O)[C@@H]5CC[C@]43C)[C@@H]12", "METRIC": "IC50", "QUANTITATIVE_RESULT": 15.6}
{"STRUCTURE_NOTATION": "C=C(C)[C@@H]1CC[C@]2(C(=O)O)CC[C@]3(C)[C@H](CC[C@@H]4[C@@]5(C)C=C(O)C(=O)[C@@](C)(CO)[C@@H]5CC[C@]43C)[C@@H]12", "METRIC": "IC50", "QUANTITATIVE_RESULT": 19.6}
